The measured values listed here are drawn from patent US20260285850A1.

Tested on: palmer (palmer amaranth, palmer pigweed, Amaranthus palmeri)
Assay: Test A postemergence application, visual injury rating 0-100
Format: in vivo
Conditions: Postemergence, 16 g ai/ha, greenhouse 10 days; 0 no effect, 100 complete control
Entries and their measured Pigweed, Palmer plant response rating (0 to 100 scale) follow.

COC(=O)C1C=CC(NC(=O)C2(C(F)(F)F)CN(c3cc(F)c(F)c(F)c3)C(=O)O2)C1 (mixture of isomers)
10
CCOC(=O)C1C=CC(NC(=O)C2(C)CN(c3cc(C)cc(C)c3)C(=O)O2)C1 (stereo not shown)
0
CSCCOC(=O)C1=CCC(NC(=O)C2(C)CN(c3cc(F)cc(Cl)c3)C(=O)O2)C1 (stereo not shown)
70
CC1(C(=O)NC2C=CC(C(=O)O)C2)CN(c2cc(Cl)c(F)c(Cl)c2)C(=O)O1 (stereo not shown)
50
CC1(C(=O)NC2CC=C(C(=O)OCC3CC3)C2)CN(c2cc(F)cc(Cl)c2)C(=O)O1 (stereo not shown)
70

Report Pigweed, Palmer plant response rating (0 to 100 scale) for COC(=O)C1=CCC(NC(=O)C2(C)CN(c3cc(F)c(F)c(F)c3)C(=O)O2)C1 (mixture of isomers) please. 10

And what about the compound C=CC1(C(=O)NC2CC(C(=O)OC)C2)CN(c2cc(F)cc(F)c2)C(=O)O1 (stereo not shown) [Compound 172] ? 10

* * *

Tested on: barnyardgrass (Echinochloa crus-galli)
Test: Test A postemergence application, visual injury rating 0-100
Assay type: in vivo
Details: Postemergence, 125 g ai/ha, 10 days; 0 is no effect, 100 is complete control
Quantity: Barnyardgrass plant response rating (0 to 100 scale)
Answer with a number only.

Report Barnyardgrass plant response rating (0 to 100 scale) for COC(=O)C1=CCC(NC(=O)C2(C)CN(c3cc(F)cc(F)c3)C(=O)O2)C1 (single isomer, unassigned) [Compound 20] please. 90

And what about the molecule CC(C)COC(=O)C1C=CC(NC(=O)C2(C)CN(c3cc(Cl)cc(Cl)c3)C(=O)O2)C1 (stereo not drawn) ? 100

* * *

System: green foxtail (Setaria viridis)
Assay: Test A postemergence application, visual injury rating 0-100
Format: in vivo
Conditions: 62 g ai/ha, postemergence, 10 days, 0 = no effect, 100 = complete control
Entries and their measured Foxtail, Green plant response rating (0-100) follow.
Answer with a number only.

COC(=O)C1C=CC(NC(=O)C2(C)CN(c3cc(F)cc(F)c3)C(=O)O2)C1 (stereo not shown)
90
CC1(C(=O)NC2CC=C(C(=O)OCC(F)(F)F)C2)CN(c2cc(F)cc(Cl)c2)C(=O)O1 (stereo not shown)
90
COC(=O)C1CC(NC(=O)C2(C)CN(c3cc(F)cc(F)c3)C(=O)O2)C1 (stereo not shown) [Compound 130]
90
CC1(C(=O)NC2C=CC(C(=O)NO)C2)CN(c2cc(F)cc(F)c2)C(=O)O1 (stereo not shown)
10
C=CC1(C(=O)NC2C=CC(C(=O)O)C2)CN(c2cc(F)cc(F)c2)C(=O)O1 (mixture of isomers)
90
CC(C)COC(=O)C1=CCC(NC(=O)C2(C)CN(c3cc(F)cc(Cl)c3)C(=O)O2)C1 (stereo not shown)
0

Report Foxtail, Green plant response rating (0-100) for COC(=O)C1CC(NC(=O)C2(C(F)(F)F)CN(c3cc(F)cc(F)c3)C(=O)O2)C2CC12 (stereo not shown) please. 90

And what about the molecule CC1(C(=O)NC2C=CC(C(=O)O)C2)CN(c2cc(F)cc(F)c2)C(=O)O1 (stereo not shown) ? 90

And what about the molecule COC(=O)C1C=CC(NC(=O)C2(C)CN(c3cc(Cl)c(F)c(Cl)c3)C(=O)O2)C1 (stereo not shown) ? 90

And what about the molecule COC(=O)COC(=O)C1=CCC(NC(=O)C2(C)CN(c3cc(F)cc(F)c3)C(=O)O2)C1 (stereo not shown) ? 20

And what about the molecule COC(=O)C1=CCC(NC(=O)C2(C)CN(c3cc(Cl)cc(Cl)c3)C(=O)O2)C1 (stereo not shown) ? 30

* * *

Tested on: barnyardgrass (Echinochloa crus-galli)
Test: Test A preemergence soil spray, visual injury rating 0-100
Type: in vivo
Conditions: 31 g ai/ha, 10 days, 0 = no effect, 100 = complete control
Quantity: Barnyardgrass plant response rating (0-100)
Answer with a number only.

Report Barnyardgrass plant response rating (0-100) for CCOC(=O)C1CC(NC(=O)C2(C)CN(c3cc(F)cc(F)c3)C(=O)O2)CO1 (stereo not shown) [Compound 31] please. 0

And what about the compound COC(=O)C1=CC[C@H](NC(=O)C2(C)CN(c3cc(F)cc(F)c3)C(=O)O2)C1 (mixture of isomers) [Compound 37] ? 30

And what about the compound CCOC(=O)C1CCC(NC(=O)C2(C)CN(c3cc(F)cc(F)c3)C(=O)O2)C1 (stereo not shown) [Compound 11] ? 0

And what about the compound CC1(C(=O)NC2CC=C(C(=O)OCC(F)(F)F)C2)CN(c2cc(F)cc(F)c2)C(=O)O1 (single isomer, unassigned) [Compound 24] ? 10

And what about the compound CONC(=O)C1CC(NC(=O)C2(C)CN(c3cc(F)cc(F)c3)C(=O)O2)CO1 (stereo not shown) [Compound 39] ? 0

And what about the compound COC(=O)C1CC(NC(=O)C2(C)CN(c3cc(F)cc(F)c3)C(=O)O2)CO1 (stereo not shown) [Compound 29] ? 0

And what about the compound CCOC(=O)C1CCC(NC(=O)C2(C)CN(c3cc(F)cc(Cl)c3)C(=O)O2)C1 (stereo not shown) [Compound 19] ? 30

And what about the compound CC(C)OC(=O)C1=CCC(NC(=O)C2(C)CN(c3cc(Cl)cc(Cl)c3)C(=O)O2)C1 (stereo not shown) [Compound 70] ? 30

And what about the compound CCCS(=O)(=O)OC(=O)C1C=CC(NC(=O)C2(C)CN(c3cc(Cl)cc(Cl)c3)C(=O)O2)C1 (mixture of isomers) [Compound 79] ? 30

And what about the compound CC(C)COC(=O)C1C=CC(NC(=O)C2(C)CN(c3cc(F)cc(F)c3)C(=O)O2)C1 (stereo not shown) [Compound 56] ? 30

And what about the compound CC(C)OC(=O)C1=CCC(NC(=O)C2(C)CN(c3cc(F)cc(F)c3)C(=O)O2)C1 (stereo not shown) [Compound 5] ? 0

And what about the compound CC1(C(=O)NC2C=CC(C(=O)OCC(F)(F)F)C2)CN(c2cc(Cl)cc(Cl)c2)C(=O)O1 (stereo not shown) [Compound 64] ? 80

And what about the compound CCOC(=O)C1=CCC(NC(=O)C2(C)CN(c3cc(F)cc(F)c3)C(=O)O2)C1 (stereo not shown) [Compound 15] ? 0

And what about the compound COC(=O)C1=CCC(NC(=O)C2(C)CN(c3cc(F)cc(F)c3)C(=O)O2)C1 (single isomer, unassigned) [Compound 20] ? 0

And what about the compound CC1(C(=O)NC2CC=C(C(=O)OCC(F)(F)F)C2)CN(c2cc(F)cc(F)c2)C(=O)O1 (stereo not shown) [Compound 1] ? 90

And what about the compound CC1(C(=O)NC2C=CC(C(=O)OC3CCCC3)C2)CN(c2cc(Cl)cc(Cl)c2)C(=O)O1 (stereo not shown) [Compound 59] ? 60

* * *

Test system: kochia (Bassia scoparia)
Assay: Test A preemergence soil spray, visual injury rating 0-100
Type: in vivo
Conditions: 62 g ai/ha, 10 days, 0 = no effect, 100 = complete control
Decide by Kochia plant response rating (0-100): equal to or exceeding 40 means yes, less means no.

CC1(C(=O)NC2C=CC(C(=O)O)C2)CN(c2cc(F)cc(F)c2)C(=O)O1 (stereo not drawn) [Compound 131]
yes
COC(=O)C1C=CC(NC(=O)C2(C)CN(c3cc(F)cc(F)c3)C(=O)O2)C1 (mixture of isomers) [Compound 161]
yes
COC(=O)C1CC(NC(=O)C2(C)CN(c3cc(F)cc(F)c3)C(=O)O2)C1 (stereo not drawn) [Compound 117]
no
C=CC1(C(=O)NC2CC(C(=O)OC)C2)CN(c2cc(F)cc(F)c2)C(=O)O1 (stereo not drawn) [Compound 172]
yes
CC1(C(=O)NC2CC=C(C(=O)O)C2)CN(c2cc(F)cc(Cl)c2)C(=O)O1 (stereo not drawn) [Compound 160]
no

# next molecule below
Entry CC(C)OC(=O)C1=CCC(NC(=O)C2(C)CN(c3cc(F)cc(F)c3)C(=O)O2)C1 (stereo not drawn) [Compound 99] : is its Kochia plant response rating (0-100) no less than 40? no

* * *

Tested on: corn (Zea mays)
Assay: Test A preemergence soil spray, visual injury rating 0-100
Assay type: in vivo
Conditions: 31 g ai/ha, 10 days, 0 = no effect, 100 = complete control
Quantity: Corn plant response rating (0-100)
Answer with a number only.

CCOC(=O)COC(=O)C1C=CC(NC(=O)C2(C)CN(c3cc(F)cc(F)c3)C(=O)O2)C1 (centres unmarked) [Compound 53]
0
CONC(=O)C1CC(NC(=O)C2(C)CN(c3cc(F)cc(F)c3)C(=O)O2)CO1 (centres unmarked) [Compound 39]
0
CC(C)OC(=O)C1=CCC(NC(=O)C2(C)CN(c3cc(F)cc(F)c3)C(=O)O2)C1 (centres unmarked) [Compound 5]
0

Hi! What's the reported Corn plant response rating (0-100) for CC1(C(=O)NC2CC=C(C(=O)O)C2)CN(c2cc(Cl)cc(Cl)c2)C(=O)O1 (centres unmarked) [Compound 72] on corn (Zea mays)? 0

And what about the compound CC1(C(=O)NC2C=CC(C(=O)OC3CCCC3)C2)CN(c2cc(F)cc(F)c2)C(=O)O1 (centres unmarked) [Compound 57] ? 10

And what about the compound CC1(C(=O)NC2C=CC(C(=O)OCc3ccc(F)cc3)C2)CN(c2cc(F)cc(F)c2)C(=O)O1 (centres unmarked) [Compound 54] ? 0

And what about the compound COC(=O)C1=CCC(NC(=O)C2(C)CN(c3cc(Cl)cc(Cl)c3)C(=O)O2)C1 (centres unmarked) [Compound 58] ? 10

And what about the compound CC1(C(=O)NC2C=CC(C(=O)OC3CCCC3)C2)CN(c2cc(Cl)cc(Cl)c2)C(=O)O1 (centres unmarked) [Compound 59] ? 0
